Assay Method Text: Displacement of [3H]MLA from alpha7 nAChR in rat brain homogenate by liquid scintillation spectrophotometry
Assay type: tissue-based
So basically, if Ki comes in under 20 µM it's True, and if it's 20 µM or more it's False.

Below, 5 compounds whose answers are already recorded.
CN1[C@@H](CC(=O)c2ccccc2)CCC[C@H]1C[C@H](OS(=O)(=O)c1ccc2ccccc2c1)c1ccccc1    True
CN1C(CC(=O)c2ccccc2)CCC[C@H]1CC(OS(=O)(=O)c1ccc(F)cc1)c1ccccc1 (single isomer, unassigned)    False
CN1C(CC(=O)c2ccccc2)CCC[C@H]1CC(OS(=O)(=O)c1ccccc1)c1ccccc1 (single isomer, unassigned)    False
CN1C(CC(=O)c2ccccc2)CCC[C@H]1CC(OC(=O)c1ccccc1)c1ccccc1 (single isomer, unassigned)    False
COc1ccc(C(=O)O[C@@H](C[C@@H]2CCC[C@H](CC(=O)c3ccccc3)N2C)c2ccccc2)cc1    True

Just wondering, is Ki of Cc1ccc(S(=O)(=O)OC(C[C@@H]2CCCC(CC(=O)c3ccccc3)N2C)c2ccccc2)cc1 (single isomer, unassigned) below 20 µM?
True

Just wondering, is Ki of CCC(=O)OC(C[C@@H]1CCCC(CC(=O)c2ccccc2)N1C)c1ccccc1 (single isomer, unassigned) below 20 µM?
True

---

Study System: Sodium-dependent dopamine transporter (Rattus norvegicus, UniProt P23977)
Sequence (P23977 whole entry): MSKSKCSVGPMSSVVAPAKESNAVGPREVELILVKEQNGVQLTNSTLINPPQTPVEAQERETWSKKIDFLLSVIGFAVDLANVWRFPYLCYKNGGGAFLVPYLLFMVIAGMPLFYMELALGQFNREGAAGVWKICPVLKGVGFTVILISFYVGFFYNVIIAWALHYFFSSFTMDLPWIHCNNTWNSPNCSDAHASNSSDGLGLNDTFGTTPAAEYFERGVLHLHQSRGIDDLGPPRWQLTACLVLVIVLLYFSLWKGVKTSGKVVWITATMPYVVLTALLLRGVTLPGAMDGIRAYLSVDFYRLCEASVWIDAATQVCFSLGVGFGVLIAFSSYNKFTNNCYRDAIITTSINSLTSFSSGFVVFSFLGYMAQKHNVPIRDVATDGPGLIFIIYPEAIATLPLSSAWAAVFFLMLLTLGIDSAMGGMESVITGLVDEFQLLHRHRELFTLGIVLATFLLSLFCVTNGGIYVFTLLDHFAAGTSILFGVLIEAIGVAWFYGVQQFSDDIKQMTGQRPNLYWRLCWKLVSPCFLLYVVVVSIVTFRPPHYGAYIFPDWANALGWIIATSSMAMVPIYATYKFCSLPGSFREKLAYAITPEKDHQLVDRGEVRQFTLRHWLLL
Assay Method Text: Inhibition of [3H]DA uptake at DAT in rat brain striatal synaptosomes by liquid scintillation spectrophotometry
Format: subcellular
Each entry below lists one item and its recorded pKi value.
When answering, recall that pKi equals minus log10 of the concentration in mol/L, and write that number alone.

For orientation, consider the following solved cases.
CN1C(CC(=O)c2ccccc2)CCC[C@H]1CC(OS(=O)(=O)c1ccc([N+](=O)[O-])cc1)c1ccccc1 (single isomer, unassigned)    4.70
CN1C(CC(=O)c2ccccc2)CCC[C@H]1CC(OC(=O)c1ccccc1)c1ccccc1 (single isomer, unassigned)    5.64
COc1ccc(C(=O)O[C@@H](C[C@@H]2CCC[C@H](CC(=O)c3ccccc3)N2C)c2ccccc2)cc1    5.42

Lab book: pKi of CCCC(=O)OC(C[C@@H]1CCCC(CC(=O)c2ccccc2)N1C)c1ccccc1 (single isomer, unassigned) noted as 5.32

Lab book: pKi of CN1[C@@H](CC(=O)c2ccccc2)CCC[C@H]1C[C@H](OS(=O)(=O)c1cccc2ccccc12)c1ccccc1 noted as 5.38

---

Each entry below lists one item and its recorded Ki value.
Study System: Sodium-dependent serotonin transporter (Rattus norvegicus, UniProt P31652)
Sequence (P31652 whole entry): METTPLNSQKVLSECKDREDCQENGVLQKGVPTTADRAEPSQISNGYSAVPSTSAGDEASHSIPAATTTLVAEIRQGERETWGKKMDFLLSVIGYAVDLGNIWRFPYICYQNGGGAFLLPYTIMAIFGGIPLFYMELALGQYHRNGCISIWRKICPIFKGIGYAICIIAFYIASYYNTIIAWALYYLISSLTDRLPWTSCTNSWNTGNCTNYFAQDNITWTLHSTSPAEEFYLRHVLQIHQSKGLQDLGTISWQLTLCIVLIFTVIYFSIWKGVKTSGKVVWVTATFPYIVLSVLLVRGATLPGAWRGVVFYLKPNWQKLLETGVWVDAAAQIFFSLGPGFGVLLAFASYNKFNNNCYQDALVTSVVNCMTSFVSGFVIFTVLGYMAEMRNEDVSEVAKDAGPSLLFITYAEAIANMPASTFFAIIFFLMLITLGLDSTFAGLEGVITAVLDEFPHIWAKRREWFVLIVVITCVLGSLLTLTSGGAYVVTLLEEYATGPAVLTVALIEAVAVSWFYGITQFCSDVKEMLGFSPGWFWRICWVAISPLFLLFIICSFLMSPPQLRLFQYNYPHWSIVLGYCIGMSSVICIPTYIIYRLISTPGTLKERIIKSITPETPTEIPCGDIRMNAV
Assay Method Text: Inhibition of [3H]5HT uptake at SERT in rat brain hippocampal synaptosomes by liquid scintillation spectrophotometry
Report the figure in µM without appending any unit label.

For orientation, consider the following solved cases.
CC(C)C(=O)OC(C[C@@H]1CCCC(CC(=O)c2ccccc2)N1C)c1ccccc1 (single isomer, unassigned)    1.06
CN1C(CC(=O)c2ccccc2)CCC[C@H]1CC(OS(=O)(=O)Cc1ccccc1)c1ccccc1 (single isomer, unassigned)    4.52
CN1C(CC(=O)c2ccccc2)CCC[C@H]1CC(OS(=O)(=O)c1ccc(F)cc1)c1ccccc1 (single isomer, unassigned)    4.68

Lab book: Ki of CCCCS(=O)(=O)OC(C[C@@H]1CCCC(CC(=O)c2ccccc2)N1C)c1ccccc1 (single isomer, unassigned) noted as 5.16

Lab book: Ki of COc1ccc(C(=O)O[C@@H](C[C@@H]2CCC[C@H](CC(=O)c3ccccc3)N2C)c2ccccc2)cc1 noted as 2.04
